- test target: cdk4/cyclin D1 (Homo sapiens, UniProt P11802)
- Sequence (P11802 whole entry): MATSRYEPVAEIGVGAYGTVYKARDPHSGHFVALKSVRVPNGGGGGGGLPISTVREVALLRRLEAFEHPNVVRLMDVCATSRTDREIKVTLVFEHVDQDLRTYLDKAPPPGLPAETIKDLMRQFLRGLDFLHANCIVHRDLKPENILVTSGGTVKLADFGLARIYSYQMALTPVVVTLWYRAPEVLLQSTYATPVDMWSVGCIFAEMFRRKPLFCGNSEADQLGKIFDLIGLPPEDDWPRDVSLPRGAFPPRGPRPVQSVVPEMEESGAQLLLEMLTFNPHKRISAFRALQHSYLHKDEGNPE
- Sequence (P24385 whole entry partner): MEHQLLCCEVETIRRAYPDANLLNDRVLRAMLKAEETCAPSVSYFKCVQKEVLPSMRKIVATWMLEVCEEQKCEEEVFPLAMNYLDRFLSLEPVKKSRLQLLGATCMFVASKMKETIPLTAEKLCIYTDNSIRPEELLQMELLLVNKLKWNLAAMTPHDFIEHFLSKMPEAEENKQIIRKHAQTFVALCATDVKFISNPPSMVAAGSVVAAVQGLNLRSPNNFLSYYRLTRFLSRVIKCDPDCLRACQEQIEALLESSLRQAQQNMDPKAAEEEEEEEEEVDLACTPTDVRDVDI
- method description: Cyclin-dependent kinase assay, cdk4/cyclin D1
- Type: biochemical
- measurement setup: cyclin D1/cdk4; GST-pRb substrate, 10 µM ATP
Counter-ions that a name gives are not always drawn.
Lab note - cut at 400 nM for IC50: Yes if strictly below, No if not.

[
  {
    "compound": "CC(=O)c1ccc(NC(=O)N2CCC(Nc3nc(N[C@H]4CC[C@H](N)CC4)nc4c3ncn4C3CCCC3)CC2)cc1 [compound 188, dihydrochloride]",
    "assigned category": "Yes"
  },
  {
    "compound": "N[C@H]1CC[C@H](Nc2nc(NC3CCN(S(=O)(=O)c4ccc5ccccc5c4)CC3)c3ncn(C4CCCC4)c3n2)CC1 [compound 116, dihydrochloride]",
    "assigned category": "Yes"
  },
  {
    "compound": "C[C@H](NC(=O)N1CCC(Nc2nc(N[C@H]3CC[C@H](N)CC3)nc3c2ncn3C2CCCC2)CC1)c1ccccc1 [compound 161, dihydrochloride]",
    "assigned category": "No"
  }
]

Please check: IC50 for N[C@H]1CC[C@H](Nc2nc(NC3CCN(S(=O)(=O)c4ccc(Cl)c(Cl)c4)CC3)c3ncn(C4CCCC4)c3n2)CC1 [compound 138, dihydrochloride] , strictly under 400 nM or not?
Yes

Please check: IC50 for C#CCOC(=O)N1CCC(Nc2nc(N[C@H]3CC[C@H](N)CC3)nc3c2ncn3C2CCCC2)CC1 [compound 102, dihydrochloride] , strictly under 400 nM or not?
No

Please check: IC50 for N[C@H]1CC[C@H](Nc2nc(NC3CCN(C(=O)Nc4ccccc4F)CC3)c3ncn(C4CCCC4)c3n2)CC1 [compound 207, dihydrochloride] , strictly under 400 nM or not?
Yes
